This section presents compounds with their documented toxicity values.
- PROTOCOL_SUMMARY: tubulin staining increase by stabilizing compounds – imaging, high-content imaging, primary screen (AID 2205);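 for toxicity: 0% = mean cell density of plate MIN control wells and 100% = no cells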
- PARTICULARS: HeLa tubulin immunostaining HCS, 24 h, at 10 µM; measured here: cytotoxicity by cell density
The campaign covered roughly 200,000 compounds. About 1,600 (0.8%) were called active. This is one part of a sample in which actives are shown more often than they occur.
READOUT_LABEL: toxicity (%)

STRUCTURE: Cc1ccc(S(=O)(=O)C2(S(=O)(=O)c3ccc(C)cc3)CCCC2)cc1
VALUE: 67.7

STRUCTURE: Cc1ccc2nc(-c3ccncc3)cc(C(=O)Nc3ccc(OC(F)F)cc3)c2c1
VALUE: 27.1

STRUCTURE: Cc1ccc2nc(-c3ccncc3)cc(C(=O)Nc3ccc4c(c3)OCCO4)c2c1
VALUE: 10

STRUCTURE: Cc1ccc2nc(-c3ccccn3)cc(C(=O)Nc3ccc4c(c3)OCO4)c2c1
VALUE: 5.75

STRUCTURE: Cc1ccc(S(=O)(=O)NC(=O)N2CCCC(C)(C)C2)cc1
VALUE: 2.22

====

- PROTOCOL_SUMMARY: tubulin staining increase by stabilizing compounds – imaging, high-content imaging, primary screen (AID 2205)
- PARTICULARS: HeLa tubulin immunostaining HCS, 24 h, at 10 µM, share of cells brighter than vehicle mean+2SD
In all, about 200,000 compounds went through this assay and about 1,600 (0.8%) were called active.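 The calls were made as follows: active = plate Z-score above 3 for both tubulin-high and condensed-nucleus cell shares, with cell loss under 80%, at 10 µM; inactive = the rest, inconclusive results apart.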 The entries come from a sample that favours actives as a whole.
Labels: yes (1) for active, no (0) for inactive

MOLECULE: Cc1ccc(COc2ccc(/C=N/NC(=O)CN3CCCCC3)cc2)cc1
CLASS_LABEL: no (0)
//
MOLECULE: CCOC(=O)c1sc2nc(CSCC(=O)OCc3ccc(C(=O)OC)o3)[nH]c(=O)c2c1C
CLASS_LABEL: no (0)
//
MOLECULE: CCCOC(=O)c1[nH]c2c(c1C)C(=O)CC(c1cccs1)C2 (stereo unspecified)
CLASS_LABEL: yes (1)
//
MOLECULE: CN(Cc1ccccc1)C(=O)COC(=O)c1ccccc1Nc1ccccc1
CLASS_LABEL: no (0)
//
MOLECULE: COC(=O)c1ccc(CN2CCN(CCCc3ccccc3)C(CCO)C2)cc1 (stereo unspecified)
CLASS_LABEL: no (0)
//
MOLECULE: CCCC(=O)Nc1nc2ccc(NC(=O)c3cccnc3)cc2s1
CLASS_LABEL: yes (1)
//
MOLECULE: CCOC(=O)c1sc2nc(C)nc(SCC(N)=O)c2c1C
CLASS_LABEL: no (0)
//
MOLECULE: CCC(=O)Nc1cccc(NC(=O)c2cccnc2)c1
CLASS_LABEL: no (0)
//
MOLECULE: Cc1onc(C(=O)NCc2ccc(F)cc2)c1[N+](=O)[O-]
CLASS_LABEL: no (0)
//
MOLECULE: Cc1ccsc1C(=O)N/N=C/c1ccc([N+](=O)[O-])cc1
CLASS_LABEL: no (0)
//
MOLECULE: COc1ccc2nc(Nc3nc4ccc(NC(C)=O)cc4s3)sc2c1
CLASS_LABEL: no (0)

====

- PROTOCOL_SUMMARY: tubulin staining increase by stabilizing compounds – imaging, high-content imaging, primary screen (AID 2205);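 for % tubulin-high responders: anti alpha tubulin signal scored within the nucleus-defined area of each cell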
- PARTICULARS: HeLa tubulin immunostaining HCS, 24 h, at 10 µM; stronger effect = higher value, share of cells brighter than vehicle mean+2SD
Hit rate of the full screen: of about 200,000 compounds, about 1,600 (0.8%) were called active. This excerpt belongs to a sample that is enriched for actives.
READOUT_LABEL: % tubulin-high responders (%)

COMPOUND: COc1ccc(CN(C)C(C)C(=O)NC2CCCc3ccccc32)cc1 (stereo not given)
READOUT_LABEL: % tubulin-high responders
UNIT_STRING: %
VALUE: 11.4
--
COMPOUND: CCC1(C(=O)c2ccccc2)C(c2cccc([N+](=O)[O-])c2)C1(C(=O)OC)C(=O)OC (stereo not given)
READOUT_LABEL: % tubulin-high responders
UNIT_STRING: %
VALUE: 3.4
--
COMPOUND: COc1ccccc1Nc1nc(N)nc(CN(C)C2CCCCC2)n1
READOUT_LABEL: % tubulin-high responders
UNIT_STRING: %
VALUE: 3.4
--
COMPOUND: Cc1ccc(S(=O)(=O)C2(S(=O)(=O)c3ccc(C)cc3)CCCC2)cc1
READOUT_LABEL: % tubulin-high responders
UNIT_STRING: %
VALUE: 36.4
--
COMPOUND: Cc1ccc(S(=O)(=O)NC(=O)N2CCCC(C)(C)C2)cc1
READOUT_LABEL: % tubulin-high responders
UNIT_STRING: %
VALUE: 1.38
--
COMPOUND: COc1ccccc1C1SCCN1C(=O)c1ccc([N+](=O)[O-])cc1 (stereo not given)
READOUT_LABEL: % tubulin-high responders
UNIT_STRING: %
VALUE: 3.9
--
COMPOUND: COc1ccc(C(=O)N2CCc3cc(OC)c(OC)cc3C2c2cccc([N+](=O)[O-])c2)cc1 (stereo not given)
READOUT_LABEL: % tubulin-high responders
UNIT_STRING: %
VALUE: 45.1
--
COMPOUND: C/C(CC1CC(C)(C)OC1=O)=N/Nc1nc(-c2ccccc2)cs1 (stereo not given)
READOUT_LABEL: % tubulin-high responders
UNIT_STRING: %
VALUE: 6.39
--
COMPOUND: CCOc1ccc(NC(=O)COc2ccc(C(=O)NC3CCCc4ccccc43)cc2OC)cc1 (stereo not given)
READOUT_LABEL: % tubulin-high responders
UNIT_STRING: %
VALUE: 5.53
--
COMPOUND: COc1ccccc1NC1=NC(c2ccc(Cl)cc2)N=C(N)N1 (stereo not given)
READOUT_LABEL: % tubulin-high responders
UNIT_STRING: %
VALUE: 18

Ref: PubChem BioAssay AID2205
